Experimental context: 318.16 K; 101.33 kPa; Liquid; Pulse-echo method
Observation type: speed of sound (m/s)

# Molecule, U, speed of sound
records = [
    ("CCCC(=O)[O-].C[NH2+]CCO [N-methyl-2-hydroxyethylammonium butanoate]", "m/s", 1551.9),
    ("CCC(=O)[O-].C[NH2+]CCO [2-hydroxy-N-methylethanaminium propionate]", "m/s", 1630.9),
    ("C[NH2+]CCO.O=C[O-] [2-hydroxy-N-methylethanaminium formate]", "m/s", 1776.3),
    ("CCCCC(=O)[O-].C[NH2+]CCO [2-hydroxy-N-methylethanaminium pentanoate]", "m/s", 1486.9),
    ("CC(C)C(=O)[O-].C[NH2+]CCO [2-hydroxy-N-methylethanaminium isobutyrate]", "m/s", 1554.8),
]

----------
Experimental context: 329.9 K; 101.33 kPa; Liquid; Vibrating tube method
Observation type: mass density (kg/m3)

# Compound, Observation type, Reading
rows = [
    ("C[NH2+]CCO.O=C[O-] [2-hydroxy-N-methylethanaminium formate]", "mass density", 1110.65),
    ("CCCCC(=O)[O-].C[NH2+]CCO [2-hydroxy-N-methylethanaminium pentanoate]", "mass density", 994.528),
    ("CC(=O)[O-].C[NH2+]CCO [N-methyl-2-hydroxyethylammonium acetate]", "mass density", 1081.4),
    ("CCC(=O)[O-].C[NH2+]CCO [2-hydroxy-N-methylethanaminium propionate]", "mass density", 1050.24),
    ("CC(C)C(=O)[O-].C[NH2+]CCO [2-hydroxy-N-methylethanaminium isobutyrate]", "mass density", 1022.48),
    ("CCCC(=O)[O-].C[NH2+]CCO [N-methyl-2-hydroxyethylammonium butanoate]", "mass density", 1017.54),
]

----------
Experimental context: 280.65 K; 101.33 kPa; Liquid; Pulse-echo method
Observation type: speed of sound (m/s)

# Compound, Reading
rows = [
    ("CCCCC(=O)[O-].C[NH2+]CCO [2-hydroxy-N-methylethanaminium pentanoate]", 1607.3),
    ("CCCC(=O)[O-].C[NH2+]CCO [N-methyl-2-hydroxyethylammonium butanoate]", 1673.9),
    ("CC(C)C(=O)[O-].C[NH2+]CCO [2-hydroxy-N-methylethanaminium isobutyrate]", 1662.3),
    ("CCC(=O)[O-].C[NH2+]CCO [2-hydroxy-N-methylethanaminium propionate]", 1744),
    ("C[NH2+]CCO.O=C[O-] [2-hydroxy-N-methylethanaminium formate]", 1849.7),
]

----------
Experimental context: 337.16 K; 101.33 kPa; Liquid; Vibrating tube method
Observation type: mass density (kg/m3)

# Compound, U, mass density
measured = [
    ("CCCC(=O)[O-].C[NH2+]CCO [N-methyl-2-hydroxyethylammonium butanoate]", "kg/m3", 1012.4),
    ("CCCCC(=O)[O-].C[NH2+]CCO [2-hydroxy-N-methylethanaminium pentanoate]", "kg/m3", 989.407),
    ("CCC(=O)[O-].C[NH2+]CCO [2-hydroxy-N-methylethanaminium propionate]", "kg/m3", 1045.27),
    ("CC(=O)[O-].C[NH2+]CCO [N-methyl-2-hydroxyethylammonium acetate]", "kg/m3", 1076.8),
    ("C[NH2+]CCO.O=C[O-] [2-hydroxy-N-methylethanaminium formate]", "kg/m3", 1106.9),
    ("CC(C)C(=O)[O-].C[NH2+]CCO [2-hydroxy-N-methylethanaminium isobutyrate]", "kg/m3", 1017.53),
]

Attribution: the NIST ThermoML archive (doi:10.1021/je900550v)
